Tested on: HEK-293T
Test: Multiplex assay against HEK293T
Assay type: toxicity, cell-based
Conditions: human, 24 h, 1 µM, compound concentration 1 uM, replicate 2
# note: boundary value 300 maps to Not fulfilled; Total Cell Count below it maps to Fulfilled

Answered cases to consult:
COMPOUND	QUALITATIVE_LABEL
CN(C)C(=O)C(CCN1CCC(O)(c2ccc(Cl)cc2)CC1)(c1ccccc1)c1ccccc1.Cl [LOPERAMIDE HYDROCHLORIDE]	Fulfilled
CCNc1cc(N[C@H]2CC[C@H](O)CC2)nc(Nc2ccc3c(ccn3Cc3ccccc3)c2)n1	Not fulfilled
CCc1cccc(CC)c1NC(=O)c1nn(C)c2c1CCc1cnc(Nc3ccc(N4CCN(C)CC4)cc3OC)nc1-2	Not fulfilled
O=C1N/C(=N/c2ccccc2F)S/C1=C\c1ccc(C(=O)O)cc1	Fulfilled
O=C(Cc1ccc(-c2ccc(OCCN3CCOCC3)cc2)cn1)NCc1ccccc1	Fulfilled

IN: is_below(Total Cell Count, 300) for `Cc1cn(-c2cc(NC(=O)c3ccc(C)c(Nc4nccc(-c5cccnc5)n4)c3)cc(C(F)(F)F)c2)cn1` ?
OUT: Fulfilled

IN: What do you get for `CNC(=O)c1ccc(Nc2nc(OC3CCCC3)c3c(-c4ccc5nc(C)oc5c4)c[nH]c3n2)c(OC)c1` ?
OUT: Not fulfilled

IN: What do you get for `CCn1c(=O)c(-c2ccc(-c3cncs3)cc2Cl)cc2cnc(Nc3ccc(N4CCN(C)CC4)cc3)nc21` ?
OUT: Not fulfilled

IN: What do you get for `CCc1cccc(CC)c1NC(=O)c1nn(C)c2c1CCc1cnc(Nc3ccc(C(=O)NC4CCN(C)CC4)cc3OC(F)(F)F)nc1-2` ?
OUT: Fulfilled

IN: What do you get for `CCN1CCN(c2ccc(Nc3cc(N(C)C(=O)Nc4c(Cl)c(OC)cc(OC)c4Cl)ncn3)cc2)CC1` ?
OUT: Not fulfilled

IN: What do you get for `Cc1cc(C)c(S(=O)(=O)N(Cc2ccc(-c3cccc(S(C)(=O)=O)c3)cc2)Cc2ccc(C(F)(F)F)o2)c(C)c1` ?
OUT: Fulfilled

IN: What do you get for `Cl.O=C(c1ccc(Nc2nccc(-c3cc4ccccc4s3)n2)cc1)N1CCC(N2CCCC2)CC1` ?
OUT: Not fulfilled

IN: What do you get for `CNc1cc(Oc2cc(C(=O)Nc3cc(N4CCN(C)CC4)cc(C(F)(F)F)c3)ccc2C)ncn1` ?
OUT: Fulfilled

IN: What do you get for `CCOc1cc2ncc(C#N)c(Nc3ccc(OCc4ccccn4)c(Cl)c3)c2cc1NC(=O)/C=C/CN(C)C` ?
OUT: Not fulfilled

IN: What do you get for `CCCn1c(=O)c2[nH]c(-c3cnn(Cc4cccc(C(F)(F)F)c4)c3)nc2n(CC)c1=O` ?
OUT: Fulfilled

IN: What do you get for `CCOc1cc(C(=O)N2CCC(N3CCN(C)CC3)CC2)ccc1Nc1ncc2c(n1)N(C1CCCC1)c1ccccc1C(=O)N2C` ?
OUT: Fulfilled

IN: What do you get for `O=C1NC(=O)C(c2cnc3ccccn23)=C1c1cn2c3c(cc(F)cc13)CN(C(=O)N1CCCCC1)CC2` ?
OUT: Fulfilled

IN: What do you get for `O=C(Nc1cccnn1)N1CCC(=Cc2cccc(Oc3ccc(C(F)(F)F)cn3)c2)CC1` ?
OUT: Not fulfilled

IN: What do you get for `CCCS(=O)(=O)c1nc(NC2CC2)cc(-c2ccc3c(ccn3C3CC(C)(C)NC(C)(C)C3)c2)n1` ?
OUT: Fulfilled

IN: What do you get for `Cl.Oc1ccc2c3c1O[C@H]1c4[nH]c5c(c4C[C@@]4(O)[C@@H](C2)N(CC2CC2)CC[C@]314)C[C@@]1(O)[C@H]2Cc3ccc(O)c4c3[C@@]1(CCN2CC1CC1)[C@H]5O4` ?
OUT: Fulfilled

IN: What do you get for `COc1cccc2cc(-c3nc([C@H]4CC[C@H](C(=O)O)CC4)n4ncnc(N)c34)[nH]c12` ?
OUT: Not fulfilled

IN: What do you get for `CCCS(=O)(=O)Nc1ccc(F)c(C(=O)c2c[nH]c3ncc(Cl)cc23)c1F` ?
OUT: Not fulfilled

IN: What do you get for `Cn1nc(C(F)(F)F)cc1-c1cnc(N2CCc3cc(S(=O)(=O)Nc4c(F)cc(Cl)cc4F)cc(N4CCCC4=O)c32)nc1` ?
OUT: Not fulfilled

IN: What do you get for `NC(=O)c1cccc(-c2cc(Nc3ccc(OC(F)(F)F)cc3)ncn2)c1` ?
OUT: Not fulfilled

----------
Tested on: U2OS
Experiment: Multiplex assay against U2OS
Type: toxicity, cell-based
Details: human, 24 h, 1 µM, compound concentration 1 uM, replicate 1
ASSAY_METRIC: Population Tubulin-Different-Phenotype (%)
// return numeric value only (unit: %, not printed)

COMPOUND	TESTED_SYSTEM	REPORTED_MEASUREMENT
CN[C@@H]1C[C@H]2O[C@@](C)([C@@H]1OC)n1c3ccccc3c3c4c(c5c6ccccc6n2c5c31)C(=O)NC4	U2OS	92

IN: // query Population Tubulin-Different-Phenotype (%) value for entry `O=C(Nc1ccc(-n2nc(-c3cccnc3)cc2C(F)(F)F)cn1)c1ccc(-c2ccccc2)c(F)c1`
OUT: 13

IN: What do you get for COc1cc2ncnc(Nc3ccc(F)c(Cl)c3)c2cc1NC(=O)/C=C/CN1CCCCC1 [DACOMITINIB ANHYDROUS] ?
OUT: 39

IN: What do you get for `Cl.Oc1ccc2c3c1O[C@H]1c4[nH]c5c(c4C[C@@]4(O)[C@@H](C2)N(CC2CC2)CC[C@]314)C[C@@]1(O)[C@H]2Cc3ccc(O)c4c3[C@@]1(CCN2CC1CC1)[C@H]5O4` ?
OUT: 9

----------
Test system: Fibroblast
Assay: Multiplex assay against human fibroblast
Assay type: toxicity, cell-based
Conditions: 12 h, 10 µM, compound concentration 10 uM, replicate 1
ASSAY_METRIC: Population Tubulin-Different-Phenotype (%)
Numeric answer plus unit only.

// known answers, use as guide
COMPOUND	TESTED_SYSTEM	REPORTED_MEASUREMENT
COc1ccc(S(=O)(=O)N(CCO)c2ccccc2CN(C)C/C=C/c2ccc(Cl)cc2)cc1.O=P(O)(O)O	Fibroblast	19%
Cl.O=c1c2cccn2c2ccccc2n1CCCN1CCC(c2ccc(Cl)cc2)CC1	Fibroblast	84%
Cc1cn(-c2cc(NC(=O)c3ccc(C)c(Nc4nccc(-c5cccnc5)n4)c3)cc(C(F)(F)F)c2)cn1	Fibroblast	2%
CCc1cccc(CC)c1NC(=O)c1nn(C)c2c1CCc1cnc(Nc3ccc(N4CCN(C)CC4)cc3OC)nc1-2	Fibroblast	18%
O=C(Nc1cccnn1)N1CCC(=Cc2cccc(Oc3ccc(C(F)(F)F)cn3)c2)CC1	Fibroblast	7%
C=C1/C(=C\C=C2/CCC[C@]3(C)[C@@H]([C@H](C)/C=C/[C@H](C)C(C)C)CC[C@@H]23)C[C@@H](O)C[C@@H]1O	Fibroblast	28%

IN: // query Population Tubulin-Different-Phenotype (%) value for entry CN1C2CCC1CC(OC(c1ccc(F)cc1)c1ccc(F)cc1)C2.Cl (stereo not drawn)
OUT: 68%

IN: What do you get for `O=C(Nc1ccc(-c2ccnc(Nc3ccc(N4CCOCC4)cc3)n2)cc1)[C@@H]1CCCN1` ?
OUT: 74%

----------
Test system: Fibroblast
Assay: Multiplex assay against human fibroblast
Format: toxicity, cell-based
Conditions: 24 h, 1 µM, compound concentration 1 uM, replicate 1
# label = label 1 if Population Tubulin-Different-Phenotype (%) >= 40% else label 0

COMPOUND	QUALITATIVE_LABEL
O=C(Nc1cccnn1)N1CCC(=Cc2cccc(Oc3ccc(C(F)(F)F)cn3)c2)CC1	label 0
CCc1cccc(CC)c1NC(=O)c1nn(C)c2c1CCc1cnc(Nc3ccc(N4CCN(C)CC4)cc3OC)nc1-2	label 1
CCCn1c(=O)c2[nH]c(-c3cnn(Cc4cccc(C(F)(F)F)c4)c3)nc2n(CC)c1=O	label 1
COc1cccc2cc(-c3nc([C@H]4CC[C@H](C(=O)O)CC4)n4ncnc(N)c34)[nH]c12	label 0
O=C(Cc1ccc(-c2ccc(OCCN3CCOCC3)cc2)cn1)NCc1ccccc1	label 0
NC(=O)c1cccc(-c2cc(Nc3ccc(OC(F)(F)F)cc3)ncn2)c1	label 0
CN1CCN(C(=O)C(C)(C)c2ccc(C(=O)Nc3cn4cc(-c5cc(C(C)(C)C)cc(C(C)(C)C)c5)ccc4n3)cc2)CC1	label 0
C=C1/C(=C\C=C2/CCC[C@]3(C)[C@@H]([C@H](C)/C=C/[C@H](C)C(C)C)CC[C@@H]23)C[C@@H](O)C[C@@H]1O	label 0

IN: Given the entry `CNc1cc(Oc2cc(C(=O)Nc3cc(N4CCN(C)CC4)cc(C(F)(F)F)c3)ccc2C)ncn1` , answer whether its Population Tubulin-Different-Phenotype (%) meets or surpasses 40%.
OUT: label 1

IN: What do you get for `CCOc1cc(C(=O)N2CCC(N3CCN(C)CC3)CC2)ccc1Nc1ncc2c(n1)N(C1CCCC1)c1ccccc1C(=O)N2C` ?
OUT: label 1

IN: What do you get for `COc1ccc(-c2ccc3c(N4CCOCC4)nc(N4C[C@@H](C)O[C@@H](C)C4)nc3n2)cc1CO` ?
OUT: label 0

IN: What do you get for `S=C(NCCCc1c[nH]cn1)NCCCN(Cc1ccc(Cl)c(Cl)c1)c1ccc(Br)cn1` ?
OUT: label 1

IN: What do you get for `Cc1ccc2nc(NCCN)c3ncc(C)n3c2c1.O=C(O)C(F)(F)F.O=C(O)C(F)(F)F` ?
OUT: label 0

IN: What do you get for COc1cc2ncnc(Nc3ccc(F)c(Cl)c3)c2cc1NC(=O)/C=C/CN1CCCCC1 [DACOMITINIB ANHYDROUS] ?
OUT: label 1
